biological target: Liver Receptor Homolog-1 (LRH-1, NR5A2) (Homo sapiens)
Sequence (O00482 294-541): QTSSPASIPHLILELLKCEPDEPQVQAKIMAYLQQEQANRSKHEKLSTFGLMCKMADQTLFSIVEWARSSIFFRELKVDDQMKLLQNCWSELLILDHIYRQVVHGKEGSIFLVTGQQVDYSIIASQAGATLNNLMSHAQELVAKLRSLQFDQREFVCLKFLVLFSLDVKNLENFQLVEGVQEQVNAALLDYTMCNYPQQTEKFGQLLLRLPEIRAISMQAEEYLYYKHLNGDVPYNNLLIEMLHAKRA
attribute.measured: pKd
Give bare numbers, as −log10 of the molar value.

Form: Entry = CCCCCCCCCCCCCCCC(=O)OC[C@@H](COP(=O)(O)O[C@H]1[C@H](O)[C@@H](OP(=O)(O)O)[C@H](OP(=O)(O)O)[C@@H](OP(=O)(O)O)[C@H]1O)OC(=O)CCCCCCCCCCCCCCC | System = Liver Receptor Homolog-1 (LRH-1, NR5A2) (Homo sapiens) | pKd = ____ 6.92
